Every entry's value here was drawn from patent US20250163044A1.

- measurement.description: In vivo pharmacokinetics: plasma and brain exposure after IP administration
- Parameters: species or system male C57BL/6 mice
- measurement.context: male, C57BL/6, mouse, brain, ip, 10 mg/kg, 0.5 h, individual mouse, read-out: Brain Parenchyma Concentration, Individual
recorded.endpoint: concentration at 0.5 h (nM)
Write down the numeric answer in nM and omit the unit.

Incoming: Read the entry `COc1nccc2[nH]cc(CCN(C)C)c12` and write its reported concentration at 0.5 h.
Outgoing: 1610

---

# pEC50 annotations
- target.of.assay: 5-HT2A receptor (Homo sapiens)
- Construct: host or cells: HEK293
- measurement.description: FLIPR Ca2+ flux functional assay, agonist activity at 5-HT2A
- Format: cell-based
- measurement.context: HEK293 cells, Ca2+ flux; read-out: 5-HT2A EC50
- Procedure: Activity at 5-HT2A, 5-HT2B and 5-HT2C receptors was determined using a FLIPR Ca2+ flux assay at WuXi AppTec Co. Ltd. (Hong Kong) Discovery Biology Unit according to their standard protocols. […] 10 μL of references and compounds were then transferred from the compound plate into the cell plate and the fluorescent signal was read.
// returns pEC50 (minus log10 of molar concentration), number only

Incoming: # lookup: 5-HT2A receptor (Homo sapiens) pEC50, key = `COc1nccc2[nH]cc(CCN(C)C)c12`
Outgoing: 7.61

More entries:
Incoming: # lookup: 5-HT2A receptor (Homo sapiens) pEC50, key = `CCN(CC)CCc1n[nH]c2cccc(OC)c12`
Outgoing: 5.53

---

# EC50 annotations
- target.of.assay: 5-HT2C receptor (Homo sapiens, UniProt P28335)
- Construct: host or cells: HEK293
- Sequence (P28335 33-458): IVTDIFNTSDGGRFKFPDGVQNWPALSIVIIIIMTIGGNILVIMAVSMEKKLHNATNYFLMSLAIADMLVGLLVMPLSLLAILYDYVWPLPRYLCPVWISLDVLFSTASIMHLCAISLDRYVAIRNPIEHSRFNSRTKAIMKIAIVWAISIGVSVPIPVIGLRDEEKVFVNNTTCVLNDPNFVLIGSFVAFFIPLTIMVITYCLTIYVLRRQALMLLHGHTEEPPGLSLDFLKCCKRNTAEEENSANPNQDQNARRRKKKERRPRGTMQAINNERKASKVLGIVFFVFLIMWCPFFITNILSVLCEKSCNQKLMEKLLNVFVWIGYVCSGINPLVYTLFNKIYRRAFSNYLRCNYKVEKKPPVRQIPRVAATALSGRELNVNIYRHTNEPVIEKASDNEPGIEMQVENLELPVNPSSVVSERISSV
- measurement.description: FLIPR Ca2+ flux functional assay, agonist activity at 5-HT2C
- Assay type: cell-based
- measurement.context: HEK293 cells, Ca2+ flux; read-out: 5-HT2C EC50
Write down the numeric answer in nM and omit the unit.

// solved cases for EC50 follow
Incoming: Read the entry CCCN(CCC)CCc1c[nH]c2ccc(OC)nc12 [Example P-11] and write its reported EC50.
Outgoing: 91.1

Incoming: Read the entry CCN(CC)CCc1n[nH]c2cccc(OC)c12 [Example P-42] and write its reported EC50.
Outgoing: 3490

Incoming: Read the entry COc1cccc2[nH]nc(CCN(C)C)c12 [Example P-55] and write its reported EC50.
Outgoing: 367

Incoming: Read the entry CCN(C)CCc1c[nH]c2ccnc(OC)c12 [Example P-37] and write its reported EC50.
Outgoing: 533

More entries:
Incoming: Read the entry COc1ccc2[nH]cc(CCN(C(C)C)C(C)C)c2n1 [Example P-12] and write its reported EC50.
Outgoing: 200

Incoming: Read the entry CCN(CC)CCc1c[nH]c2ccnc(OC)c12 [Example P-34] and write its reported EC50.
Outgoing: 682

Incoming: Read the entry COc1ccnc2[nH]cc(CCN(C)C)c12 [Example P-4] and write its reported EC50.
Outgoing: 241

Incoming: Read the entry CN(C)CCc1n[nH]c2ccccc12 [Example P-7] and write its reported EC50.
Outgoing: 2340

Incoming: Read the entry CN(C)CCc1n[nH]c2cccc(O)c12 [Example P-56] and write its reported EC50.
Outgoing: 1260

---

- target.of.assay: 5-HT2C receptor (Homo sapiens, UniProt P28335)
- Construct: host or cells: HEK293
- measurement.description: FLIPR Ca2+ flux functional assay, agonist activity at 5-HT2C
- Format: cell-based
recorded.endpoint: EC50 (nM)
Write down the numeric answer in nM and omit the unit.

Incoming: # lookup: 5-HT2C receptor (Homo sapiens, UniProt P28335) EC50, key = `COc1ccc2[nH]cc(CCN(C)C)c2n1`
Outgoing: 18.8

---

- target.of.assay: 5-HT2B receptor (Homo sapiens, UniProt P41595)
- Construct: host or cells: CHO-K1
- Sequence (P41595 whole entry): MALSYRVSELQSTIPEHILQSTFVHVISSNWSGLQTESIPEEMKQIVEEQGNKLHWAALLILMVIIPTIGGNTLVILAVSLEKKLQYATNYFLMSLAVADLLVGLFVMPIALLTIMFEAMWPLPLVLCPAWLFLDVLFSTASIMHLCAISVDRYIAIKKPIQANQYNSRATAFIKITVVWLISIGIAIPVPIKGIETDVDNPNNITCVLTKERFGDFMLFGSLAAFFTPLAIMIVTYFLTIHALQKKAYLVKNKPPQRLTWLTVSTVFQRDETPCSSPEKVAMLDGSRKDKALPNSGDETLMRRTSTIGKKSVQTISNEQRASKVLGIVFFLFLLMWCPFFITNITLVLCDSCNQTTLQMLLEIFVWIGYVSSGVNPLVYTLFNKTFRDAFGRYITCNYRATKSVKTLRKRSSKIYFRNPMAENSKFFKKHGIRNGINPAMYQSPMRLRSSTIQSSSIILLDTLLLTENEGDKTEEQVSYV
- measurement.description: FLIPR Ca2+ flux functional assay, agonist activity at 5-HT2B
- Format: cell-based
- measurement.context: CHO-K1 cells, Ca2+ flux; read-out: 5-HT2B EC50
recorded.endpoint: EC50

Incoming: Read the entry `CCN(CC)CCc1c[nH]c2ccc(OC)nc12` and write its reported EC50.
Outgoing: 0.284 µM

Incoming: Read the entry `CCN(C)CCc1c[nH]c2ccc(OC)nc12` and write its reported EC50.
Outgoing: > 10 µM

Incoming: Read the entry `COc1ccc2[nH]cc(CCN(C(C)C)C(C)C)c2n1` and write its reported EC50.
Outgoing: 0.0222 µM

Incoming: Read the entry `CN(C)CCc1c[nH]c2nccc(F)c12` and write its reported EC50.
Outgoing: > 10 µM

Incoming: Read the entry `CCCN(CCC)CCc1c[nH]c2ccnc(OC)c12` and write its reported EC50.
Outgoing: 0.0785 µM

More entries:
Incoming: Read the entry CN(C)CCc1n[nH]c2cccc(O)c12 [Example P-6] and write its reported EC50.
Outgoing: > 10 µM

Incoming: Read the entry `COc1ccc2[nH]nc(CCN(C)C)c2c1` and write its reported EC50.
Outgoing: > 10 µM

Incoming: Read the entry `CCN(CC)CCc1n[nH]c2cccc(OC)c12` and write its reported EC50.
Outgoing: > 10 µM

Incoming: Read the entry `CCN(C)CCc1c[nH]c2ncc(OC)cc12` and write its reported EC50.
Outgoing: > 10 µM

Incoming: Read the entry `CN(C)CCc1n[nH]c2ccccc12` and write its reported EC50.
Outgoing: > 10 µM

Incoming: Read the entry `CCN(C)CCc1c[nH]c2nccc(C)c12` and write its reported EC50.
Outgoing: > 10 µM

Incoming: Read the entry `COc1cnc2[nH]cc(CCN(C)C(C)C)c2c1` and write its reported EC50.
Outgoing: > 10 µM

Incoming: Read the entry `CCN(C)CCc1c[nH]c2nccc(OC)c12` and write its reported EC50.
Outgoing: > 10 µM

Incoming: Read the entry `CCN(C)CCc1c[nH]c2ccnc(OC)c12` and write its reported EC50.
Outgoing: > 10 µM

Incoming: Read the entry `CCCN(CCC)CCc1c[nH]c2ccc(OC)nc12` and write its reported EC50.
Outgoing: 0.0522 µM

---

- measurement.description: In vivo pharmacokinetics: plasma and brain exposure after IP administration
- Set-up: species or system male C57BL/6 mice
- measurement.context: male, C57BL/6, mouse, brain/plasma, ip, 10 mg/kg, 0.083 h, n = 3, read-out: B:P Ratio, Mean ± SD
recorded.endpoint: Kp at 0.083 h

Incoming: Read the entry `COc1nccc2[nH]cc(CCN(C)C)c12` and write its reported Kp at 0.083 h.
Outgoing: 0.19

---

# EC50 annotations
- target.of.assay: 5-HT2A receptor (Homo sapiens, UniProt P28223)
- Construct: host or cells: HEK293
- Sequence (P28223 whole entry): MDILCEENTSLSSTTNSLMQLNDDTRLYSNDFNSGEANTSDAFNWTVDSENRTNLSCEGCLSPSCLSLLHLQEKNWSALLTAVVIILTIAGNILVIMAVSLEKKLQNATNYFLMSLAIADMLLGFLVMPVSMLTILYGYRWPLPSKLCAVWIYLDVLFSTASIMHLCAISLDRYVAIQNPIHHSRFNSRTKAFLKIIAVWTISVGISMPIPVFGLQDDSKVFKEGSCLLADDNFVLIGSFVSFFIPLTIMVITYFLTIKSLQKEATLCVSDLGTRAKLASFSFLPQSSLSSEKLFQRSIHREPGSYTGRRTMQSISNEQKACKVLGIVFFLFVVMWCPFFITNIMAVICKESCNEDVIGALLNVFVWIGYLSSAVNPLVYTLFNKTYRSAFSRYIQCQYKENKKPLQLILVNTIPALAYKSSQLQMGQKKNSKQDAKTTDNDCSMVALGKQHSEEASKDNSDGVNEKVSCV
- measurement.description: FLIPR Ca2+ flux functional assay, agonist activity at 5-HT2A
- Type: cell-based
- measurement.context: HEK293 cells, Ca2+ flux; read-out: 5-HT2A EC50

Incoming: Read the entry `Cc1cnc2[nH]cc(CCN(C)C)c2c1` and write its reported EC50.
Outgoing: 691 nM

Incoming: Read the entry `CCN(C)CCc1c[nH]c2ncc(C)cc12` and write its reported EC50.
Outgoing: 1240 nM

Incoming: Read the entry `CCN(CC)CCc1n[nH]c2cccc(O)c12` and write its reported EC50.
Outgoing: 2180 nM

Incoming: Read the entry `CCN(C)CCc1c[nH]c2ncc(F)cc12` and write its reported EC50.
Outgoing: 109 nM

More entries:
Incoming: Read the entry `COc1cccc2[nH]nc(CCN(C)C)c12` and write its reported EC50.
Outgoing: 256 nM

Incoming: Read the entry `COc1ccnc2[nH]cc(CCN(C)C)c12` and write its reported EC50.
Outgoing: 1230 nM

---

- measurement.description: In vivo pharmacokinetics: plasma and brain exposure after IP administration
- Design: species or system male C57BL/6 mice
- measurement.context: male, C57BL/6, mouse, plasma, ip, 10 mg/kg, 0.5 h, individual mouse, read-out: Plasma Concentration, Individual
recorded.endpoint: concentration at 0.5 h (nM)
Write down the numeric answer in nM and omit the unit.

Incoming: Read the entry `COc1nccc2[nH]cc(CCN(C)C)c12` and write its reported concentration at 0.5 h.
Outgoing: 815
